Read-out: Potassium channel subfamily K member 1 (KCNK1), KCNK1 (gene 3775)
ASSAY_COMMENT: LTEA_HepaRG_KCNK1: Life Technologies and Expression Analysis (LTEA) Assay for Potassium channel subfamily K member 1 (KCNK1) using HepaRG (AID 2283511)
EXPERIMENTAL_PARAMETERS: mRNA level, 48 h; actives raise or lower the signal
The source made the active and inactive calls. Rule for the calls: active = hit-call score of the fitted dose curve at least 0.9, where 1 is the maximum; inactive = score below 0.9.
// classify into active, inactive

Example results:
Query block: Kindly provide the recorded test outcome for the following compound: O=[N+]([O-])c1cc(C(F)(F)F)c(Cl)c([N+](=O)[O-])c1Nc1ncc(C(F)(F)F)cc1Cl
Result block: inactive

Query block: Kindly provide the recorded test outcome for the following compound: CCc1cnc(C2=NC(C)(C(C)C)C(=O)N2)c(C(=O)O)c1 (configuration not stated)
Result block: inactive

Query block: Kindly provide the recorded test outcome for the following compound: CNC(=O)ON=C(C)SC
Result block: inactive

More entries:
Query block: Kindly provide the recorded test outcome for the following compound: CCOP(=S)(OCC)Oc1ccc2c(C)c(Cl)c(=O)oc2c1
Result block: inactive

Query block: Kindly provide the recorded test outcome for the following compound: Cc1nn(-c2cc(NS(C)(=O)=O)c(Cl)cc2Cl)c(=O)n1C(F)F
Result block: inactive

Query block: Kindly provide the recorded test outcome for the following compound: CCOP(=O)(SC(C)CC)N1CCSC1=O (configuration not stated)
Result block: inactive

Query block: Kindly provide the recorded test outcome for the following compound: CCCSP(=O)(OCC)Oc1ccc(Br)cc1Cl (configuration not stated)
Result block: inactive

Query block: Kindly provide the recorded test outcome for the following compound: CCNc1nc(Cl)nc(NC(C)(C)C#N)n1
Result block: inactive

Query block: Kindly provide the recorded test outcome for the following compound: O=c1ccc(=O)[nH][nH]1
Result block: inactive

Query block: Kindly provide the recorded test outcome for the following compound: CCOP(=O)(NC(C)C)Oc1ccc(SC)c(C)c1 (configuration not stated)
Result block: inactive

Query block: Kindly provide the recorded test outcome for the following compound: CN(C)NC(=O)CCC(=O)O
Result block: inactive

Query block: Kindly provide the recorded test outcome for the following compound: CCCCN(CC)c1c([N+](=O)[O-])cc(C(F)(F)F)cc1[N+](=O)[O-]
Result block: inactive

Query block: Kindly provide the recorded test outcome for the following compound: FC(F)C(F)(F)OCC(Cn1cncn1)c1ccc(Cl)cc1Cl (configuration not stated)
Result block: active

Query block: Kindly provide the recorded test outcome for the following compound: COP(=O)(OC)OC(Br)C(Cl)(Cl)Br (configuration not stated)
Result block: inactive

Query block: Kindly provide the recorded test outcome for the following compound: CSc1nc(NC(C)C)nc(NC(C)C)n1
Result block: inactive

Query block: Kindly provide the recorded test outcome for the following compound: CCOP(=S)(OCC)SCCSCC
Result block: inactive

Query block: Kindly provide the recorded test outcome for the following compound: C[Si](Cn1cncn1)(c1ccc(F)cc1)c1ccc(F)cc1
Result block: active

Query block: Kindly provide the recorded test outcome for the following compound: CCOP(=S)(OCC)OC(Cl)C(Cl)(Cl)Cl (configuration not stated)
Result block: inactive

Query block: Kindly provide the recorded test outcome for the following compound: CCOP(=O)(OCC)Oc1cc(C)nc(C(C)C)n1
Result block: inactive
